Data origin, for the record: the nanobody polyreactivity screen of Harvey et al. (2022)

assay.comment: yeast display, Sf9 membrane polyspecificity reagent, FACS + sequencing; frameworks hold sequencing errors
property.label: polyreactivity (PSR sort gate)

A selection of reference data follows.
[[record]]
ordered_residues = "QVQLLESGGGLVQAGGTLRLSCAASGSIFFRNAMGWYRQAPGKERELVAAITWNGGSTYYADSVKGRFTISRDNAKNTVYLQMNSLKPDDTAVYYCNKYYYYRDSGYWGQGTQVTVSS"
property_label = "polyreactivity (PSR sort gate)"
reported_result = "high polyreactivity"

[[record]]
ordered_residues = "QVQLVESGGGLVQAGGSLRLSCAASGFTFAYYAMGWYRQAPGKERELVAAISSGDNTNYADSVKGRFTISRDNAKNTVYLQMNSLKPEDTAVYYCNAEYNFKWWGPYWYYVKDDYWGQGTQVTVSS"
property_label = "polyreactivity (PSR sort gate)"
reported_result = "low polyreactivity"

[[record]]
ordered_residues = "QVQLVESGGGLVPAGGSLRLSCAASGRISDLYAMGCYRQAPGKETEVVAGSTWRGGSTYYADSVKGRFTISRDNAKNTVYLQMNSLKPEDTAVYYCNAVWVQQVVGDGKRTWNFWYDYWGQGTQVTVSS"
property_label = "polyreactivity (PSR sort gate)"
reported_result = "low polyreactivity"

[[record]]
ordered_residues = "QVQLVESVGGLVQAGGSLRLSSSASGSNCVLNAIGWYRQAPGKEWELVAAITKVGSTYYADSVKGRFTISRDNAKNTVYLQMNSLIPEDTAVYYCNADPGEVLVGYDYWGQGTQVTVSS"
property_label = "polyreactivity (PSR sort gate)"
reported_result = "low polyreactivity"

[[record]]
ordered_residues = "QVQLVDSGGGLVQARVNLRLSCRATGIIFYLYVMGWYRQSPGKDRELVAVISYSGDDTYYADSVQVRFTISRDNAKNTVYLQMISLKPEDTAVYYCADDSIGYGVDYWGQGTQVTVSS"
property_label = "polyreactivity (PSR sort gate)"
reported_result = "low polyreactivity"

[[record]]
ordered_residues = "QVQLVESGGGLVQAGGSLRLSCAASGIIFSFYAMGWYRQAPWKERELVAAISSGGNTNYADSVNGRFTISRDNAKNTVYLQMNSLKPEDTAVYYCAAGYYIWSTYDYWGQGTQVTVSS"
property_label = "polyreactivity (PSR sort gate)"
reported_result = "low polyreactivity"


What value of polyreactivity (PSR sort gate) has been recorded for this entry: `QVQLVESGGGLVQAGGSLRLSCAPSGRTVRYNAMGWYRQAPGKERELVARITWSGGRTYYADSVKGRFTISRDNAKNTVYLQMNSLKPEDTAVNYGNAPSIAGYAEYNSHDYWGQGTQVTVSS`
high polyreactivity

* * *

assay.comment: yeast display, Sf9 membrane polyspecificity reagent, FACS + sequencing; frameworks hold sequencing errors
property.label: polyreactivity (PSR sort gate)

[[record]]
ordered_residues = "QVQLVESGGGLFQAGGSLRLSCAASGFSFYGNTMGWYRQAPGKERELFASITSGSSTHYADSVKGRFTISRDNAKNTVYLQMNSLKPDDTAVYYCNVEDIQFGKYDYWGQGTQVTVSS"
reported_result = "low polyreactivity"

[[record]]
ordered_residues = "QVQLVESGGGLVQAGGSLRLSCAASGSTFVLYANGWYRQAPGKERELVAASTRRGGDTYYADSVKGRFTISRDNATNTVYLQMNSLKPEDTAVDYCATDYTTYGRYYYWGQGTQVTVSS"
reported_result = "low polyreactivity"

